The reported numbers originate from patent US20050282743A1.

# assayed-system: T1, GST-PTPL1 PDZ domain 2 (Homo sapiens (Human)), Q12923
# T1 chain: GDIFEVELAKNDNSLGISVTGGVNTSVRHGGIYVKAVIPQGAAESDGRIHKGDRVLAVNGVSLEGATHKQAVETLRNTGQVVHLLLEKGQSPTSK
# method-notes: G' assay; also: key of the grades not given here
Tick Criterion met if Classification is 4 A450 class or greater. Tick Criterion not met if Classification is less than 4 A450 class.

# binder, class-name
measured = [
    ("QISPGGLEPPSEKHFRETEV (modifications not checked) [TAX]", "Criterion not met"),
    ("TFAAGFNSTGLPHSTTRV (modifications not checked) [Neuroligin]", "Criterion not met"),
    ("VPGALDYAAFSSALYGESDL (modifications not checked) [a-actinin 2]", "Criterion not met"),
    ("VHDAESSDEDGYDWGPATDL (modifications not checked) [zona occludens 3 (ZO-3) PL peptide]", "Criterion not met"),
    ("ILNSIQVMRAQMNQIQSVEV (modifications not checked) [ephrin B2]", "Criterion not met"),
    ("DTLLLTENEGDKTEEQVSYV (modifications not checked) [serotonin receptor 5HT-2B]", "Criterion met"),
    ("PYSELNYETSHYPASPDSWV (modifications not checked) [catenin - delta 2]", "Criterion met"),
    ("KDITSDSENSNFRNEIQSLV (modifications not checked) [CD95]", "Criterion not met"),
    ("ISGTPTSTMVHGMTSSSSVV (modifications not checked) [Clasp-2]", "Criterion not met"),
]
